B1: Gamma-crystallin C, residues 91 to 170; numbered along this chain, P07315 (parent)
chain: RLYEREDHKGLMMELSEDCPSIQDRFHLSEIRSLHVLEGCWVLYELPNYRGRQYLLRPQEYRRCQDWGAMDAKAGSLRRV

- Variants of: B1
- method-summary: abundance fitness (aPCA) (normalised: wild type 0, dead -1); higher = more abundant; growth selection in yeast, the domain comes from the species named
- particulars: Homo sapiens
Recorded abundance fitness determines the label; the label ranges are group A (below -0.5), group B (-0.5 to below -0.2), group C (-0.2 or more)

Some solved entries appear below for comparison.
- K9S: group B
- Q53R: group C
- E4P: group B
- E17P: group A

Asked: Bin this entry: R1V
Given back: group B

Asked: Lab note: which band did Y3W land in?
Given back: group B

Asked: Assign a bin to P20E
Given back: group C

Asked: Lab note: which band did L46G land in?
Given back: group B

Asked: Could you tell me which band C64R belongs to?
Given back: group A

Asked: Please indicate the class for K9T based on its abundance fitness.
Given back: group C

Asked: Band for the recorded abundance fitness of G10P ?
Given back: group A

Asked: Into which category would you place E38Q ?
Given back: group C

Asked: Class label required: P20A
Given back: group C

Asked: Class? Entry: W67R
Given back: group A

Asked: State the band of A72M
Given back: group A
